Test system: OVCAR-3 ovarian
METHOD_SUMMARY: NCI-60 one-dose screen, 48 h
PARTICULARS: 10 µM unless noted
The panel holds about 83,000 compounds, 20% with a hit somewhere; the sample as a whole holds those more often. Calls of active or inactive are those of the source. Rule for the calls: active = growth percent below 10; inactive = the rest.
Labels: active, inactive

1) CCCCn1c(-c2ccc(C(=O)O/N=C(\N)c3ccc4c(c3)OCO4)cc2)nc(-c2ccccc2)c1-c1ccccc1    inactive
2) CCN(CC)c1ccc(-c2cc(-c3cc(OC)c(OC)c(OC)c3)nc(N3CCOCC3)c2C#N)cc1    inactive
3) CCCOc1ccc2nc(NC(=O)OC)[nH]c2c1    active
4) COc1ccc(-c2nnc(SCC(=O)c3ccc(Cl)cc3)o2)cc1    inactive
5) COc1ccc(C(=O)COc2ccc(/C=C3\COc4ccc(OC)cc4C3=O)cc2)cc1    inactive
6) CC(=O)O[C@H]1CC[C@]2(C)[C@H]3CC=C4[C@@H]5CC(C)(C)CC[C@]5(C(=O)NCCNCCN)CC[C@@]4(C)[C@]3(C)CC[C@H]2C1(C)C    active
7) COc1cc(-c2nn(-c3ccc(C)cc3)cc2C(=O)O)ccc1O    inactive
8) O=c1c2c3c(sc2nc(N/N=C/c2cn(-c4ccccc4)nc2-c2ccc(Cl)cc2)n1Cc1ccccc1)CCCC3    inactive
9) O=[N+]([O-])c1ccc2c(c1)Cc1cc(F)ccc1-2    inactive
10) O=C(O)c1ccc(NC(=O)c2ccc(-c3cccc([N+](=O)[O-])c3)o2)cc1    inactive
11) CCCSc1ccc2nc(NC(=O)OC)[nH]c2c1    active
12) CCCn1c(=O)[nH]c(N)c([C@H]2c3ccccc3Oc3[nH]c(=O)n(CCC)c(=O)c32)c1=O    inactive
13) Cc1cc(C)nc(SC2=C(Nc3cc(Cl)ccc3O)C(=O)N(Cc3ccccc3)C2=O)n1    inactive
14) CN(C)S(=O)(=O)c1cccc(-c2nc3sc4c(c3c(=O)[nH]2)CCCC4)c1    inactive
15) C=C(C)[C@@H]1CC[C@]2(C(=O)OC)CC[C@]3(C)[C@H](CC[C@@H]4[C@@]5(C)C/C(=C/c6cccc(I)c6)C(=O)C(C)(C)[C@@H]5CC[C@]43C)[C@@H]12    inactive
16) O=C(/C=C/C=C/c1ccc2c(c1)OCO2)N/N=C\c1ccc(O)cc1O    active
17) O=C(/C=C/c1ccc(C(F)(F)F)cc1)Nc1ccc(C=C2c3ccccc3C(=O)c3ccccc32)cc1    inactive
18) O=C(N=Nc1c(O)[nH]c2ccc(Br)cc12)c1cc(-c2ccccc2)on1    inactive
19) COC[C@H](C)n1c(C2CCOCC2)nc2cnc3cc(-c4c(C)noc4C)c(OC)cc3c21    inactive
